Entry source: ChEMBL document CHEMBL4052686

Here the recorded log10 MIC is given for each entry.
tested on: Streptococcus pyogenes; assay: Antibacterial activity against penicillin-susceptible Streptococcus pyogenes clinical isolates incubated for 24 hrs by tube-dilution method; assay type: functional
MEASURED QUANTITY: log10 MIC (log10 of the value in µg/mL)

1. C[n+]1cc2ccccc2c2cccc(OC(F)(F)F)c21.[Cl-] ... 0.60
2. Cc1cccc2c3ccccc3c[n+](C)c12.[Cl-] ... 0.60
3. CSc1cccc2c3ccccc3c[n+](C)c12.[Cl-] ... 0.90
4. C[n+]1cc2ccccc2c2cc(OC(F)(F)F)ccc21.[Cl-] ... 2.11
5. C[n+]1cc2ccccc2c2cc(F)ccc21.[Cl-] ... 1.51
6. CSc1ccc2c(c1)c1ccccc1c[n+]2C.[Cl-] ... 1.51
7. C[n+]1cc2ccccc2c2cc(C(F)(F)F)ccc21.[Cl-] ... 2.11
8. Cc1ccc2c(c1)c1ccccc1c[n+]2C.[Cl-] ... 0.60
9. COc1ccc2c(c1)c1ccccc1c[n+]2C.[Cl-] ... 0.90
10. Cc1onc(-c2ccccc2)c1C(=O)N[C@@H]1C(=O)N2[C@@H]1SC(C)(C)[C@@H]2C(=O)[O-].[Na+] ... 0.00
11. COc1cccc2c3ccccc3c[n+](C)c12.[Cl-] ... 1.20
12. C[n+]1cc2ccccc2c2ccccc21.[Cl-] ... 1.51
13. CCCCc1ccc2c(c1)c1ccccc1c[n+]2C.[Cl-] ... 0.90
14. COc1cc(OC)c2c(c1)c1ccccc1c[n+]2C.[Cl-] ... 0.60
15. C[n+]1cc2ccccc2c2cc(C(C)(C)C)ccc21.[Cl-] ... 1.20
16. CC(C)c1cccc2c3ccccc3c[n+](C)c12.[Cl-] ... 0.60
17. C[n+]1cc2c3c(ccc2c2ccc4cc5c(cc4c21)OCO5)OCO3 ... 0.90
18. Cc1cc(C)c2c(c1)c1ccccc1c[n+]2C.[Cl-] ... 0.60
19. C[n+]1cc2ccccc2c2cc(Cl)ccc21.[Cl-] ... 1.51

---

Here the recorded MIC is given for each entry.
tested on: Pseudomonas aeruginosa; assay: Antibacterial activity against penicillin-susceptible Pseudomonas aeruginosa ATCC 27853 incubated for 24 hrs by tube-dilution method; type: functional; details: ATCC 27853, 24 h
MEASURED QUANTITY: MIC

1) C[n+]1cc2ccccc2c2cc(OC(F)(F)F)ccc21.[Cl-] ... > 128 µg/mL
2) Cc1ccc2c(c1)c1ccccc1c[n+]2C.[Cl-] ... > 128 µg/mL
3) COc1cc(OC)c2c(c1)c1ccccc1c[n+]2C.[Cl-] ... > 128 µg/mL
4) CSc1ccc2c(c1)c1ccccc1c[n+]2C.[Cl-] ... > 128 µg/mL
5) Cc1onc(-c2ccccc2)c1C(=O)N[C@@H]1C(=O)N2[C@@H]1SC(C)(C)[C@@H]2C(=O)[O-].[Na+] ... 128 µg/mL
6) CSc1cccc2c3ccccc3c[n+](C)c12.[Cl-] ... > 128 µg/mL
7) COc1cccc2c3ccccc3c[n+](C)c12.[Cl-] ... > 128 µg/mL
8) C[n+]1cc2ccccc2c2cc(C(F)(F)F)ccc21.[Cl-] ... > 128 µg/mL
9) C[n+]1cc2c3c(ccc2c2ccc4cc5c(cc4c21)OCO5)OCO3 ... > 128 µg/mL
10) C[n+]1cc2ccccc2c2ccccc21.[Cl-] ... 128 µg/mL
11) COc1ccc2c(c1)c1ccccc1c[n+]2C.[Cl-] ... > 128 µg/mL

---

system: Pseudomonas aeruginosa; assay: Inhibition of FtsZ in penicillin-susceptible Pseudomonas aeruginosa ATCC 27853 assessed as lowest drug concentration causing inhibition of cell division incubated for 5 hrs by phase-contrast light microscopy
Here the recorded MIC is given for each entry.
MEASURED QUANTITY: MIC

1. Cc1ccc2c(c1)c1ccccc1c[n+]2C.[Cl-] ... > 128 µg/mL
2. COc1ccc2c(c1)c1ccccc1c[n+]2C.[Cl-] ... > 128 µg/mL
3. C[n+]1cc2ccccc2c2cc(Cl)ccc21.[Cl-] ... > 128 µg/mL

---

tested on: Staphylococcus aureus; test: Antibacterial activity against penicillin-resistant Staphylococcus aureus clinical isolates incubated for 24 hrs by tube-dilution method; format: functional
MEASURED QUANTITY: MIC (µg/mL)

1. CCCCc1ccc2c(c1)c1ccccc1c[n+]2C.[Cl-] ... 8
2. CSc1cccc2c3ccccc3c[n+](C)c12.[Cl-] ... 8
3. C[n+]1cc2ccccc2c2cccc(OC(F)(F)F)c21.[Cl-] ... 8
